- Study target: cdc7/dbf4 (Homo sapiens, UniProt O00311)
- Sequence (O00311 whole entry): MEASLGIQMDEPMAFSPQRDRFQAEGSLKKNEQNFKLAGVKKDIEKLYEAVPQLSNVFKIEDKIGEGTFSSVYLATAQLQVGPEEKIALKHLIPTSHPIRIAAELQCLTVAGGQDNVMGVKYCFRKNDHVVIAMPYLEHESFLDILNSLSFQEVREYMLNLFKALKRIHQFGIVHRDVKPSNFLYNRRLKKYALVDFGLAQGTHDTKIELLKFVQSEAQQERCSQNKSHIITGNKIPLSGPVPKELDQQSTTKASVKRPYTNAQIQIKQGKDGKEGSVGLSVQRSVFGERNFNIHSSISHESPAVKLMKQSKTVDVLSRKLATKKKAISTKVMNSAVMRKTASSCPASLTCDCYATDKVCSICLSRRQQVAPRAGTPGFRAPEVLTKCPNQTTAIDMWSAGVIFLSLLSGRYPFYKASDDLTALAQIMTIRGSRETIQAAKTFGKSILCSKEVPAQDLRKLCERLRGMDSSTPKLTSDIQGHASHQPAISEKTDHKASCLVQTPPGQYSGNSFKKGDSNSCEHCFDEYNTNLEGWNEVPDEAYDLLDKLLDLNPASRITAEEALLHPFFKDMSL
- Sequence (Q9UBU7 whole entry partner): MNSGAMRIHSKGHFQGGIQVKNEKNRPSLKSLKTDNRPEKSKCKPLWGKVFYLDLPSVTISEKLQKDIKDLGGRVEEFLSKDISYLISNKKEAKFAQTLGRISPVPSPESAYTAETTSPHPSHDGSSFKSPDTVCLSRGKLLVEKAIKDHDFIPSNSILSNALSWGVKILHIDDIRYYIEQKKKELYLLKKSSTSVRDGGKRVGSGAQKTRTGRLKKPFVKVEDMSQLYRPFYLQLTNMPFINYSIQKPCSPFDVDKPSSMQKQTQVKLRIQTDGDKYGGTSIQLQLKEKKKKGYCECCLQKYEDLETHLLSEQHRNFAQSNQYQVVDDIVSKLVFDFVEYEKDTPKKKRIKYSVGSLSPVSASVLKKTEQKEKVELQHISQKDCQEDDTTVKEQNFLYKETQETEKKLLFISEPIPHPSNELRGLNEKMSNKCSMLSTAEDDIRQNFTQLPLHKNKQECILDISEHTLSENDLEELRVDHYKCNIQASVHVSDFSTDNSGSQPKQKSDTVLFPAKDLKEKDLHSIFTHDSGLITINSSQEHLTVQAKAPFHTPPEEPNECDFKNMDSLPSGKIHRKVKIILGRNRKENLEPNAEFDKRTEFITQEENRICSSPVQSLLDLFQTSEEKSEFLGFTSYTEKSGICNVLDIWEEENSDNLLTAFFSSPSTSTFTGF
- Assay overview: In vitro assay of CDC7/DBF4 inhibition (phosphoserine 108-MCM-2 detection, donor/acceptor beads)
- Format: biochemical
- Condition label: Test Concentration 0.93 μM; 0.5 μM ATP solution, MCM-2 substrate, 1 hr room temperature
Assay metric: inhibition at 0.93 µM (stock) (%)

Below, each entry is followed by its recorded inhibition at 0.93 µM (stock) result.
query_smiles=O=c1nc(-c2ccc3[nH]ncc3c2)cc(-c2cccc(Cl)c2)[nH]1 assay_metric="inhibition at 0.93 µM (stock)" measured_result=98
query_smiles=O=c1nc(-c2ccc3[nH]ncc3c2)cc(-c2cccc(F)c2)[nH]1 assay_metric="inhibition at 0.93 µM (stock)" measured_result=82
query_smiles=CCc1ccc(-c2cc(-c3ccc4[nH]ncc4c3)nc(=O)[nH]2)cc1 assay_metric="inhibition at 0.93 µM (stock)" measured_result=83
query_smiles=COc1ccc(-c2cc(-c3ccc4[nH]ncc4c3)nc(=O)[nH]2)cc1F assay_metric="inhibition at 0.93 µM (stock)" measured_result=75
query_smiles=O=c1nc(-c2ccc3[nH]ncc3c2)cc(-c2ccccc2F)[nH]1 assay_metric="inhibition at 0.93 µM (stock)" measured_result=87
query_smiles=O=c1nc(-c2ccc3[nH]ncc3c2)cc(-c2ccc(OCc3ccccc3)cc2)[nH]1 assay_metric="inhibition at 0.93 µM (stock)" measured_result=58

I. COc1ccc(-c2cc(-c3ccc4[nH]ncc4c3)nc(=O)[nH]2)c(F)c1
II. O=c1nc(-c2ccc3[nH]ncc3c2)cc(-c2cccc(C(F)(F)F)c2)[nH]1
Input: Which value of inhibition at 0.93 µM (stock) is greater, the one for I or the one for II ? Give the label of your selection.
Output: I
(I: 81%, II: 55%)

----------
- Study target: cdc7/dbf4 (Homo sapiens)
- Assay overview: In vitro assay of CDC7/DBF4 inhibition (phosphoserine 108-MCM-2 detection, donor/acceptor beads)
- Assay type: biochemical
- Condition label: Test Concentration 1.39 μM; 0.5 μM ATP solution, MCM-2 substrate, 1 hr room temperature
Assay metric: inhibition at 1.39 µM (stock) (%)

compound="O=c1nc(-c2ccc3[nH]ncc3c2)cc(-c2ccc(N3CCOCC3)cc2)[nH]1 [Example 13]" study_target="cdc7/dbf4 (Homo sapiens)" measured_result=92
compound="O=c1nc(-c2ccc3[nH]ncc3c2)cc(-c2ccc(Oc3ccccc3)cc2)[nH]1 [Example 14]" study_target="cdc7/dbf4 (Homo sapiens)" measured_result=84
compound="O=c1nc(-c2ccc3[nH]ncc3c2)cc(-c2cccc(OCc3ccccc3)c2)[nH]1 [Example 12]" study_target="cdc7/dbf4 (Homo sapiens)" measured_result=98
compound="O=c1nc(-c2ccc3[nH]ncc3c2)cc(-c2ccccc2)[nH]1 [Example 11]" study_target="cdc7/dbf4 (Homo sapiens)" measured_result=98

----------
- Study target: cdc7/dbf4 (Homo sapiens, UniProt O00311)
- Assay overview: In vitro assay of CDC7/DBF4 inhibition (phosphoserine 108-MCM-2 detection, donor/acceptor beads)
- Format: biochemical
- Condition label: Test Concentration 0.93 μM; 0.5 μM ATP solution, MCM-2 substrate, 1 hr room temperature
Assay metric: inhibition at 0.93 µM (stock) (%)

query_smiles=O=c1nc(-c2ccc3[nH]ncc3c2)cc(-c2ccc(N3CCNCC3)cc2)[nH]1 study_target="cdc7/dbf4 (Homo sapiens, UniProt O00311)" assay_metric="inhibition at 0.93 µM (stock)" measured_result=94

P. COc1ccc(OC)c(-c2cc(-c3ccc4[nH]ncc4c3)nc(=O)[nH]2)c1
Q. COc1ccc(-c2cc(-c3ccc4[nH]ncc4c3)nc(=O)[nH]2)cc1OC
Input: Of P versus Q , which is the one with smaller reported inhibition at 0.93 µM (stock)? Give the label of your selection.
Output: Q
(Q: 62%, P: 94%)
